This collection of values is drawn from PubChem BioAssay (NCI).

The following molecules are listed with their measured GI50 values.
System: T-47D breast
methodDescription: NCI tumour cell line growth inhibition, 48 h

molecule: CCOc1ccc2c(-c3ccnc(Nc4cc(OC)cc(C(F)(F)F)c4)n3)cnn2n1
GI50: 1260 nM
--
molecule: CN(C)C(=O)Nc1nc2cc(Cl)c(Cl)cc2[nH]1
GI50: 655 nM
--
molecule: COc1ccc([C@H](CC(=O)O)N2CCN(CCCc3ccc4c(n3)NCCC4)C2=O)cn1
GI50: 382 nM
--
molecule: O=C(CCN1CCCC1)Nc1ccc2c(NCc3ccccc3)c3ccccc3nc2c1
GI50: 562 nM
--
molecule: CCC1(O)CC(OC2CC(N(C)C)C(OC3CC(O)C(OC4OC(C)C(=O)C=C4N)C(C)O3)C(C)O2)c2c(cc3c(c2O)C(=O)c2c(O)cccc2C3=O)C1C(=O)OC (stereo unspecified)
GI50: 22.1 nM
--
molecule: O=C(NCCN1CCOCC1)OCc1nc2nc(Cl)nc(N3CCOCC3)c2[nH]1
GI50: > 100000 nM
--
molecule: C#C[C@]1(O)CC[C@H]2[C@@H]3CC=C4c5sc(Nc6cc(F)ccc6F)nc5CC[C@]4(C)[C@H]3CC[C@@]21C
GI50: 2490 nM
--
molecule: CC1=CC2C(C(O)CC3(C)C2CC(C)C32OCOC23COCO3)C2(C)C/C(=C/O)C(=O)C=C12 (stereo unspecified)
GI50: 2330 nM
--
molecule: Nc1ccn(C2CC(F)C(CO)O2)c(=O)n1 (stereo unspecified)
GI50: > 100000 nM
--
molecule: Cc1ccc2nc3ccccc3c(NCc3ccc(Cl)cc3)c2c1
GI50: 7030 nM
--
molecule: Cc1c(CNc2ccc(C(=O)NC(CCCNC(=O)c3ccccc3C(=O)O)C(=O)O)cc2)cnc2nc(N)nc(N)c12 (stereo unspecified)
GI50: > 100000 nM
--
molecule: CN(C)c1ccc(Nc2c3ccccc3nc3ccccc23)cc1
GI50: 1560 nM
--
molecule: C=CC(=O)N1CCC(c2ccc(C(N)=O)c(-c3ccc(Oc4ccccc4)cc3)n2)CC1
GI50: 16100 nM
--
molecule: [2H]C([2H])([2H])NC(=O)c1nnc(NC(=O)C2CC2)cc1Nc1cccc(-c2ncn(C)n2)c1OC
GI50: 32400 nM
--
molecule: OCCCCC#Cc1ccccc1C#Cc1ccc(O)cc1
GI50: 19700 nM
--
molecule: C=C1C(=O)O[C@H]2[C@H]1CC/C(COC(=O)CCCCCC(=O)OC/C1=C/CC[C@@]3(C)O[C@H]3[C@H]3OC(=O)C(=C)[C@@H]3CC1)=C\CC[C@@]1(C)O[C@@H]21
GI50: 1960 nM
